Here the recorded T/C is given for each entry.
- Tested on: P388 leukemia ip, CD2F1 mice, survival T/C
- Measurement Notes: NCI In Vivo Anticancer Drug Screen. Data for tumor model P388 Leukemia (intraperitoneal) in CD2F1 (CDF1) mice
- Test Parameters: endpoint: median survival time; dose: 120.0 mg/kg/injection; schedule: Q01DX005 (ip); vehicle: saline with Tween-80; higher = longer survival
Toxic doses and inconclusive results are not listed.

The value of T/C measured for the molecule `C/C(O)=C(/N=Nc1ccccc1)C(=O)O` turned out to be 98 % of control

Data point: COc1cccc(C(c2cc3c(cc2O)OCO3)N2CCOCC2)c1OC (stereo not given) ; T/C = 119 % of control

---

- Tested on: P388 leukemia ip, CD2F1 mice, survival T/C
- Measurement Notes: NCI In Vivo Anticancer Drug Screen. Data for tumor model P388 Leukemia (intraperitoneal) in CD2F1 (CDF1) mice
- Test Parameters: endpoint: median survival time; dose: 400.0 mg/kg/injection; schedule: Q01DX009 (ip); vehicle: saline with Tween-80; higher = longer survival
Inconclusive results and toxic doses are left out.
Readout Kind: T/C

Use the examples below as a reference point.
>>> value_measured("CCOC(=O)NC12c3ccccc3C(c3ccccc31)C(C(=O)O)C2C(=O)O (stereo not drawn)")
"118 % of control"
>>> value_measured("COc1cc2c(cc1O)CCCC=C2C1CCCCc2cc(O)c(OC)cc21 (stereo not drawn)")
"91 % of control"
>>> value_measured("CCOC(=O)C(C(=O)OCC)c1c[n+]([O-])c2ccccc2c1[N+](=O)[O-]")
"100 % of control"
>>> value_measured("Nc1nc(Cl)c2ncn(C3OC(CO)C(O)C3O)c2n1 (stereo not drawn)")
"100 % of control"
>>> value_measured("CCOC(CNc1c[nH]c(=O)[nH]c1=O)OCC")
"100 % of control"
>>> value_measured("CC(C)CCCCc1c[nH]c(=O)[nH]c1=O")
"100 % of control"

`CN(c1ccccc1)S(=O)(=O)c1ccccc1` yielded T/C of 100 % of control

Record `CC1(C)/C(=C/c2ccccc2)C(=O)c2ccccc21` , field T/C: 100 % of control

---

- Test system: P388 leukemia ip, CD2F1 mice, survival T/C
- Measurement Notes: NCI In Vivo Anticancer Drug Screen. Data for tumor model P388 Leukemia (intraperitoneal) in CD2F1 (CDF1) mice
- Test Parameters: endpoint: median survival time; dose: 100.0 mg/kg/injection; schedule: Q04DX002 (ip); vehicle: saline; higher = longer survival
- Description: The antitumor activity of compounds was measured in mice bearing transplantable tumors. Survival or tumor size were measured and the results are expressed as the measurement made in the treated group (T) divided by the measurement made in the vehicle treated control group (C). The tumor model used in this assay is P388 Leukemia (intraperitoneal) in CD2F1 (CDF1) mice
Toxic doses and inconclusive results are not listed.
Readout Kind: T/C

>>> value_measured("C1CN2CCCN3CCCN(C1)P23")
"115 % of control"
>>> value_measured("CCCCNc1ncc(S(=O)(=O)Cc2ccc3c(c2)OCO3)c(N)n1")
"94 % of control"

Recorded T/C (molecule CC(=O)SC12CCCN1C(=O)C1CCCN1C2=O (stereo unspecified) ): 100 % of control

Given item O=S1(N2CC2)=NP(N2CC2)(N2CC2)=NP(N2CC2)(N2CC2)=N1 (stereo unspecified) , the value recorded as its T/C is 168 % of control

Value of T/C reported for the molecule C/[N+]([O-])=C1\C(C2COC(C)(C)O2)OC2OC(C)(C)OC12 (stereo unspecified) is 97 % of control

Just so you know, measured T/C for `O=c1[nH]c2ccccc2c(=O)n1-c1ccco1` came out at 100 % of control

These measurements were taken from PubChem BioAssay AID330.
